assay_explanation: yeast display, Sf9 membrane polyspecificity reagent, FACS + sequencing; frameworks hold sequencing errors
parameter: polyreactivity (PSR sort gate)

Solved cases below.
QVHLQESGSGLVQSGGSLRLTCAASGYISLGDNMGWYRQAPGKELEFVATISVGGITYYVDSVKGPFTISRDIEKNTVYLQMNSLKPEDTAVYYCASLDIYYFRYYYWGQGTQVTVSS	low polyreactivity
QVQLVESGGGLVQAGGSLRLSCAPSGRTFGYYGMGWYRQEPGKERELVASINFSSGSTFYADSVKGRFSISRDNAKNTVYLQMNSLKPEDTAVYYCAARAKAVRSYAYNYWGQGTQVTVSS	low polyreactivity
QVLLVESGGGLVQAGGSLRLSSAASGSTYRNAMGWYRQAPGKERELVAAISSSGGRTYYADSVKGRFTISRDNAKNTVYLQMNSLKPDDTAVYYCAAPRFAAPSRIGYDWGQGTQVTVSS	high polyreactivity
QVQLVESGGGLVQAGGSLRLSCAASGFTLYSYAMGWYRQAPGKETELVAAITRSGGITYYADSVKGRFTISRDNAKNTVYLQMNSLKPEDTAVYYCAALYLATGVDKAFDSWGQGTQVTVSS	high polyreactivity

Next:
[Q] Name the recorded polyreactivity (PSR sort gate) for "QVQLVESGGGLVQAGGSLRLSCAASGRTFIFYAMGWYRPAPGNVRELVAAITLRGGGTDYADSVKGRFTISRDNAKNTVYLQMTSQQPEETAVYYCNADGYPVPRRFDPYSYLSDYWGQGTQVTVSS" .
[A] low polyreactivity
